Molecular target: hSCN9A (Homo sapiens, UniProt Q15858)
Construct: expressed in transfected cells
Sequence (Q15858 whole entry): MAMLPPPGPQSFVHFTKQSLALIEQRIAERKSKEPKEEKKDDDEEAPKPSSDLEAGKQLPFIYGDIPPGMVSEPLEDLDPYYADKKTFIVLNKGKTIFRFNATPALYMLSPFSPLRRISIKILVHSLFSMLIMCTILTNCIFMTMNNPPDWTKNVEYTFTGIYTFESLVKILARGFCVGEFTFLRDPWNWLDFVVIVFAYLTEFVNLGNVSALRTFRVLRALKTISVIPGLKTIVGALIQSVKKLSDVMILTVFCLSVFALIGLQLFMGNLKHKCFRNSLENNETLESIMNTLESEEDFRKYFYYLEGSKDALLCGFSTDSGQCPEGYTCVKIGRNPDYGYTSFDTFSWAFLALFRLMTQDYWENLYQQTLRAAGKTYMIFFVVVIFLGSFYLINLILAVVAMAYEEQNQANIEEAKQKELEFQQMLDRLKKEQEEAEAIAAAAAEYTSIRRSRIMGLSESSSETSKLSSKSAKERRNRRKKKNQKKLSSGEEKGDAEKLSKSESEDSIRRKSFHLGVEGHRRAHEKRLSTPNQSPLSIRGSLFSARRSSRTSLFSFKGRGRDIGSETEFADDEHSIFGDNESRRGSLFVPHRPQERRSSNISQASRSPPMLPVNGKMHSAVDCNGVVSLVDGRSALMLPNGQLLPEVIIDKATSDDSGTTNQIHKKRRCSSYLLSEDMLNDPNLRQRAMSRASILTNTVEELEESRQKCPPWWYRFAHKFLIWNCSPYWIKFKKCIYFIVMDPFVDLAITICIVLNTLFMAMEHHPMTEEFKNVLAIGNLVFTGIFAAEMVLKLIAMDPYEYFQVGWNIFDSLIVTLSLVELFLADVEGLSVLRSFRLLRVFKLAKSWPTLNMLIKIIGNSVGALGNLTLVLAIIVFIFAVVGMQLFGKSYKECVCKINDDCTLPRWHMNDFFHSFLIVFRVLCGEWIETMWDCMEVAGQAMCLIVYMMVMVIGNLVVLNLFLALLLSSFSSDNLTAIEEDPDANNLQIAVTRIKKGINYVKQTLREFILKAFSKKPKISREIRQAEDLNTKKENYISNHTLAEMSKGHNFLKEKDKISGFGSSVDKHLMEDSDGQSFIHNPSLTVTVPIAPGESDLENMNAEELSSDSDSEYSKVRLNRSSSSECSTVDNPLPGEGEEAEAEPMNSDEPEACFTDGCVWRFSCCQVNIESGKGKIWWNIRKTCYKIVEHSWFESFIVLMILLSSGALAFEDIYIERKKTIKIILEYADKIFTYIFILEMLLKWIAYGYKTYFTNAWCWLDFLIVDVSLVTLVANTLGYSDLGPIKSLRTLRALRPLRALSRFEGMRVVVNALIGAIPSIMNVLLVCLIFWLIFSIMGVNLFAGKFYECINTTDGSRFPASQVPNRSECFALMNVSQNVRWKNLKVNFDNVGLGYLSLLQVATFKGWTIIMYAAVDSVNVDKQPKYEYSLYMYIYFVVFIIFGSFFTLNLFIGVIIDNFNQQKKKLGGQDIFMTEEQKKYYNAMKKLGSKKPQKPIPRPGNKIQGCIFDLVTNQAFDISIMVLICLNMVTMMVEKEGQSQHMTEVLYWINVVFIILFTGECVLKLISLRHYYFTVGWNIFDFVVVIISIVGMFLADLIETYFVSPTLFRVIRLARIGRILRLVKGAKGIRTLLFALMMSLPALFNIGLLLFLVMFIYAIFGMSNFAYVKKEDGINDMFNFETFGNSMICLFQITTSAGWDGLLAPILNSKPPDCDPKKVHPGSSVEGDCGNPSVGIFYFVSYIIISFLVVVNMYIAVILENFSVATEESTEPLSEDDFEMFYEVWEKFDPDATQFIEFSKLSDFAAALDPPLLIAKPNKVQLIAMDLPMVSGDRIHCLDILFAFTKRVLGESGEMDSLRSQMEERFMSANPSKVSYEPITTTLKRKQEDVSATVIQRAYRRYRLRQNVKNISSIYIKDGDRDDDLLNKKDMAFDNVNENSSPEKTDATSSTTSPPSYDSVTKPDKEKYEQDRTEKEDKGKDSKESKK
Test: Whole-cell patch-clamp electrophysiology (conventional or PatchXpress), HEK cells expressing hSCN9A, estimated IC-50
Assay type: cell-based
Settings: estimated IC-50, HEK cells expressing hSCN9A; class symbols or bounds; read-out: SCN9A EIC-50
In this section, each of the compounds is paired with its reported IC50.

Below, each entry is followed by its recorded IC50 result.
O=S(=O)(Nc1nccs1)c1ccc(Nc2nc(Cc3ccc(Cl)cc3)cs2)cc1    < 2000 nM
Cc1nnc(NS(=O)(=O)c2ccc(Nc3ccn(Cc4ccc(Cl)cc4)n3)cc2F)s1    > 1000 nM
Cc1nnc(NS(=O)(=O)c2ccc(Nc3ccn(Cc4ccc(Cl)cc4)n3)cc2F)o1    > 1000 nM
Cc1nn(Cc2ccc(Cl)cc2)c(C)c1Nc1ccc(S(=O)(=O)Nc2nccs2)c(F)c1    2000 to 10000 nM
Cc1ccc(Cc2cc(Nc3ccc(S(=O)(=O)Nc4nccs4)cc3F)n(C)n2)cc1    < 2000 nM
Cc1cc(Nc2ccc(S(=O)(=O)Nc3nccs3)c(F)c2)n(-c2cccc(F)c2)n1    < 2000 nM
O=S(=O)(Nc1nnc(C(F)(F)F)s1)c1ccc(Nc2ccn(Cc3ccc(Cl)cc3)n2)cc1F    2000 to 10000 nM

Now turn to the next compound.
(Q) Give a short answer stating reported IC50 for N#Cc1cn(-c2ccccc2)nc1Nc1ccc(S(=O)(=O)Nc2nccs2)c(F)c1 .
(A) 2000 to 10000 nM

###

Listed next: entries and their corresponding IC50.
Molecular target: hSCN9A (Homo sapiens, UniProt Q15858)
Construct: expressed in transfected cells
Test: Whole-cell patch-clamp electrophysiology (conventional or PatchXpress), HEK cells expressing hSCN9A, estimated IC-50
Type: cell-based
Settings: estimated IC-50, HEK cells expressing hSCN9A; class symbols or bounds; read-out: SCN9A EIC-50

Field: example entries. Status: answers known.
Cn1nc(Cc2ccc(F)cc2F)cc1Nc1ccc(S(=O)(=O)Nc2nccs2)cc1    < 2 µM
CN(Cc1csc(Nc2ccc(S(=O)(=O)Nc3nccs3)cc2)n1)C(c1ccccc1)c1ccccc1    > 1 µM
O=S(=O)(Nc1nccs1)c1ccc(Nc2ncn(Cc3cccc(Cl)c3)n2)c(F)c1    < 2 µM

(Q) In one line, give reported IC50 of the entry O=S(=O)(Nc1nccs1)c1ccc(Nc2cnn(Cc3ccc(Cl)cc3)c2)cn1 .
(A) 2 to 10 µM

(Q) Please report IC50 for the following compound: O=S(=O)(Nc1nccs1)c1ccc(Nc2nc(Cc3ccc(F)cc3F)cs2)cc1
(A) < 2 µM

###

Molecular target: hSCN9A (Homo sapiens, UniProt Q15858)
Construct: expressed in transfected cells
Experiment: Whole-cell patch-clamp electrophysiology (conventional or PatchXpress), HEK cells expressing hSCN9A, estimated IC-50
Type: cell-based
Conditions: commercial compounds (second Table VI); estimated IC-50 from single point electrophysiology; read-out: SCN9A EIC-50
outcome.measure: IC50

Sample records with IC50:
Cc1ccc(-c2nnc(Nc3ccc(S(=O)(=O)Nc4nccs4)cc3)c3ccccc23)cc1 [Compound 41, reference compound]    > 3 µM
O=S(=O)(Nc1nccs1)c1ccc(Nc2nnc(-c3ccccc3)c3ccccc23)cc1 [Compound 42, reference compound]    > 3 µM
CCOC(=O)C1(C)C=C(Nc2ccc(S(=O)(=O)Nc3nccs3)cc2)C(=O)N1c1ccccc1 (centres unmarked) [Compound 38, reference compound]    > 3 µM
O=S(=O)(Nc1nccs1)c1ccc(Nc2nnc(-c3ccc(Cl)cc3)c3ccccc23)cc1 [Compound 40, reference compound]    3.49 µM

(Q) Given Cc1nnc(Nc2ccc(S(=O)(=O)Nc3nccs3)cc2)c2ccccc12 [Compound 39, reference compound] , report its IC50 on hSCN9A (Homo sapiens, UniProt Q15858).
(A) > 3 µM
